target: 20S Proteasome (Homo sapiens, UniProt P20618+P28074); assay: Inhibition of the chymotrypsin-like activity of the 20S proteasome; assay type: biochemical; details: read-out: IC50 [μM] (results of one or two experiments)
Measurement type: IC50 (µM)

Given smiles	Target entity	Measurement type	Observed measurement
COc1cc(C[C@H](Nc2cccc(C(C)C)c2)C(=O)N[C@@H](C)C(=O)N[C@@H](CC(C)C)B(O)O)cc(OC)c1OC	20S Proteasome (Homo sapiens, UniProt P20618+P28074)	IC50	0.0019
COc1cc(C[C@@H](Nc2cccc(-c3ccccc3)c2)C(=O)N[C@H](C(=O)N[C@@H](CC(C)C)B2O[C@@H]3C[C@@H]4C[C@@H](C4(C)C)[C@]3(C)O2)C(C)C)cc(OC)c1OC	20S Proteasome (Homo sapiens, UniProt P20618+P28074)	IC50	0.0015
